Method description: Cytotoxicity against Vero cells after 4 days
Format: cell-based
Particulars: chlorocebus sabaeus, read-out: CCID50
Give measured CC50 at 96 h for each item. Keep answers brief.

Problem: I would be grateful if you could share the reported CC50 at 96 h for CC(C)C[C@@]1(C(=O)O)C[C@H](C(=O)O)[C@H](c2nccs2)N1C(=O)c1ccc(C(C)(C)C)cc1 (racemic) .
Solution: > 500 µM

Problem: I would be grateful if you could share the reported CC50 at 96 h for CC(C)C[C@@]1(C(=O)O)C[C@H](C(=O)O)[C@H](c2cccs2)N1C(=O)c1ccc(C(C)(C)C)cc1 (racemic) .
Solution: > 500 µM

Problem: I would be grateful if you could share the reported CC50 at 96 h for COc1cc(C(=O)N2[C@@H](c3nccs3)[C@@H](C(N)=O)C[C@@]2(CC(C)C)C(=O)O)ccc1C(C)(C)C .
Solution: > 500 µM
